Quick reference for IC50 among some compounds
target: p300 HAT domain (residues 1287-1666) (Homo sapiens (Human))
Measurement Type: IC50

INSERT INTO assay_data (compound, measurement_type, endpoint_result) VALUES
  ('C[C@H](CNC(C(=O)Nc1ccc(-c2cc(=O)n(C)cn2)cn1)c1ccccc1)c1ccc(C#N)cc1 (single isomer, unassigned) [106 Isomer 1]', 'IC50', '> 2000 nM'),
  ('Cc1ccn(-c2ccc(NC(=O)C(NCC(C)c3ccc(C#N)cc3)c3ccccc3)nc2)n1 (single isomer, unassigned) [61 Isomer 1]', 'IC50', '2410 nM'),
  ('CC(CNC(C(=O)Nc1ccc(N2CCN(C)C(=O)C2)cn1)c1cnn(C)c1)c1ccc(C#N)cc1 (single isomer, unassigned) [136 Isomer 3]', 'IC50', '26.4 nM'),
  ('CC1CN(C)C(=O)CN1c1ccc(NC(=O)C(NC[C@@H](C)c2ccc(C#N)cc2)c2ccccc2)nc1 (single isomer, unassigned) [125 Isomer 4]', 'IC50', '19.6 nM'),
  ('CO[C@H]1CCN(c2ccc(NC(=O)C(NCC(C)c3ccc(C#N)cc3)c3ccccc3)nc2)C1 (single isomer, unassigned) [93 Isomer 3]', 'IC50', '36 nM'),
  ('CC(CNC(C(=O)Nc1ccc(-c2cnn(C(C)(C)CO)c2)cn1)c1ccccc1)c1ccc(C#N)cc1 (single isomer, unassigned) [8 Isomer 2]', 'IC50', '1350 nM');

* * *

pIC50: −log10 of the molar value.
The listing below reports pIC50 for compounds tested on p300 HAT domain (residues 1287-1666) (Homo sapiens (Human)).
Measurement Type: pIC50

INSERT INTO measurements (compound, qual, endpoint_result) VALUES
  ('CO[C@H]1CCN(c2ccc(NC(=O)C(NCC(C)c3ccc(C#N)cc3)c3ccccc3)nc2)C1 (single isomer, unassigned) [93 Isomer 4]', '<', 5.70),
  ('COc1cc(-c2cnn(C)c2)ccc1NC(=O)C(NCCc1ccc(C#N)cc1)c1ccccc1 (single isomer, unassigned) [24 Isomer 2]', '=', 6.22),
  ('COC1(C)CCN(c2ccc(NC(=O)C(NCCc3ccc(C#N)cc3)c3ccccc3)nc2)CC1 (single isomer, unassigned) [53 Isomer 1]', '=', 6.92),
  ('Cn1cc(-c2ccc(NC(=O)C(NCCc3ccc(Cl)cc3C#N)c3ccccc3)nc2)cn1 (single isomer, unassigned) [94 Isomer 1]', '=', 7.07),
  ('Cc1ncc(C(C)CNC(C(=O)Nc2ccc(-c3cnn(C)c3)cn2)c2ccccc2)cn1 (single isomer, unassigned) [150 Isomer 4]', '=', 6.21),
  ('N#Cc1ccc(CCNC(C(=O)Nc2ccc(N3CCCC3)cn2)c2ccccc2)cc1 (single isomer, unassigned) [37 Isomer 2]', '=', 5.43);

* * *

target: p300 HAT domain (residues 1287-1666) (Homo sapiens (Human), UniProt Q09472); assay: p300 HAT SPA assay (scintillation proximity assay, acetylation of biotinylated H3(1-21) peptide); type: biochemical; conditions: average of at least 2 replicate titrations
Sequence (Q09472 1287-1666): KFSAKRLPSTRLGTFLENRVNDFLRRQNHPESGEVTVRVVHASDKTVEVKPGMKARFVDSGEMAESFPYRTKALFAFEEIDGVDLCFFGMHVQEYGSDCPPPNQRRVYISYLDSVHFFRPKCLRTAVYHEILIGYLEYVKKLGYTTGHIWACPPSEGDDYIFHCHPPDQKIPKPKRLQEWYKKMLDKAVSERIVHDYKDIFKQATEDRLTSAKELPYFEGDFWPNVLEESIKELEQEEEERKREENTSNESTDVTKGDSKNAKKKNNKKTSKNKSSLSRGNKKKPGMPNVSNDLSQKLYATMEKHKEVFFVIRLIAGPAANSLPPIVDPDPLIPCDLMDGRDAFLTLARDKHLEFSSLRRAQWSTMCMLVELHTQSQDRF
pIC50: −log10 of the molar value.
Measurement Type: pIC50

INSERT INTO results (compound, measurement_type, qual, endpoint_result) VALUES
  ('Cn1cc(-c2ncc(NC(=O)C(NCCc3ccc(C#N)cc3)c3ccccc3)cn2)cn1 (single isomer, unassigned) [23 Isomer 2]', 'pIC50', '<', 5.30),
  ('Cn1cc(-c2ccc(NC(=O)C(NCCc3ccc(C#N)cc3)c3ccccc3Cl)nc2)cn1 (single isomer, unassigned) [88 Isomer 2]', 'pIC50', '<', 5.70),
  ('Cc1ncn(-c2ccc(NC(=O)C(NCCc3ccc(C#N)cc3)c3ccccc3)nc2)n1 (single isomer, unassigned) [73 Isomer 1]', 'pIC50', '<', 5.70),
  ('CC(CNC(C(=O)Nc1ccc(-c2cnn(C(C)(C)CO)c2)cn1)c1ccccc1)c1ccc(C#N)cc1 (single isomer, unassigned) [8 Isomer 4]', 'pIC50', '=', 7.71),
  ('CC(CNC(C(=O)Nc1ccc(-c2cnn(C(C)(C)C#N)c2)cn1)c1ccccc1)c1ccc(C#N)cc1 (single isomer, unassigned) [47 Isomer 3]', 'pIC50', '<', 5.70),
  ('CC(CNC(C(=O)Nc1ccc(-c2cnn(C)n2)cn1)c1ccccc1)c1ccc(C(F)(F)F)cc1 (single isomer, unassigned) [99 Isomer 3]', 'pIC50', '<', 5.70),
  ('Cn1cc(-c2ccnc(NC(=O)C(NCCc3ccc(C#N)cc3)c3ccccc3)c2)cn1 (single isomer, unassigned) [122 Isomer 1]', 'pIC50', '<', 4.22),
  ('CC(CNC(C(=O)Nc1ccc(-c2cn[nH]c2)cn1)c1ccccc1)c1ccc(C#N)cc1 (single isomer, unassigned) [104 Isomer 3]', 'pIC50', '=', 6.38),
  ('Cn1cc(-c2ccc(NC(=O)C(NCCc3ccc(C#N)cc3)c3cccc(Cl)c3)nc2)cn1 (single isomer, unassigned) [79 Isomer 2]', 'pIC50', '=', 7.01),
  ('COC1CCN(c2ccc(NC(=O)C(NCCc3ccc(C#N)cc3)c3ccccc3)nc2)CC1 (single isomer, unassigned) [66 Isomer 2]', 'pIC50', '<', 5.30),
  ('Cn1cc(-c2ccc(NC(=O)C(NCCc3ccc(Cl)cc3)c3cnn(C)c3)nc2)cn1 (single isomer, unassigned) [148 Isomer 1]', 'pIC50', '=', 7.29),
  ('CC(CNC(C(=O)Nc1ccc(-c2cn(C)nn2)cn1)c1ccccc1)c1ccc(C#N)cc1 (single isomer, unassigned) [100 Isomer 1]', 'pIC50', '=', 6.18),
  ('Cn1cc(-c2ccc(NC(=O)C(NCCc3ccc(Cl)cc3)c3ccccc3)nc2)cn1 (single isomer, unassigned) [55 Isomer 1]', 'pIC50', '=', 7.72),
  ('Cn1cc(-c2ccc3c(c2)CCN3C(=O)C(NCCc2ccc(C#N)cc2)c2ccccc2)cn1 (single isomer, unassigned) [152 Isomer 2]', 'pIC50', '=', 7.50),
  ('CO[C@@H]1CCN(c2ccc(NC(=O)C(NCC(C)c3ccc(C#N)cc3)c3ccccc3)nc2)C1 (single isomer, unassigned) [92 Isomer 2]', 'pIC50', '=', 7.94),
  ('Cc1nc(NC(=O)C(NCC(C)c2ccc(C#N)cc2)c2ccccc2)ccc1-c1cnn(C)c1 (single isomer, unassigned) [39 Isomer 1]', 'pIC50', '<', 5.70);

The values you see were collected from patent US11274090B2.
